Test system: PC49
experiment: qHTS profiling for inhibitors of Plasmodium falciparum proliferation (AID 504749); note: nearly all actives have a fitted effect of over 60% in size
assayContext: P. falciparum in erythrocytes, SYBR Green DNA, 72 h; series mostly up to 28.7 µM
Records with an inconclusive call do not appear. Calls of active or inactive are those of the source. Calls come from the whole dose curve; as a rule, active = well fitted inhibition curve with a large enough effect; inconclusive = small, poorly fitted or top-dose-only effect; inactive = flat fitted curve, though single readings scatter.
Give one outcome, nothing more. List: class 1 (active), class 0 (inactive)

How did this test come out for "C=CCCCCCCCCC(=O)OC" ? class 0

Query: recorded result category for "CCCCCCCCCCCCCCCCCCCCCC(=O)Nc1ccn([C@@H]2O[C@H](CO)[C@@H](O)[C@@H]2O)c(=O)n1" in this test class 0

Please share the test call associated with "c1ccc2ccccc2c1" . class 0

For this molecule, state the assay outcome: "O=C(O[C@H]1CN2CCC1CC2)N1CCc2ccccc2[C@@H]1c1ccccc1" class 0

Record request — test call for O=S(=O)(O)CC(S)CS (centres undefined) class 0

Look up the recorded call for O=C(NCCNCC(O)COc1ccc(O)cc1)N1CCOCC1 (centres undefined) in this test. class 0

Recorded call for "CC(C)(C)c1ccc2c(S(=O)(=O)O)c(C(C)(C)C)ccc2c1" ? class 0

What was the test verdict on "Cc1nc(NS(=O)(=O)c2ccc(N)cc2)nc(C)c1Br" ? class 0

Could you check what this test reported for "Nc1ncnc2c1ncn2[C@H]1CC[C@@H](CO)O1" ? class 0

Short answer needed: outcome of this test for "CCN(CC)CCOc1ccc2nc(N(C)C)sc2c1" ? class 0

Query: recorded result category for CC12CCC(C1)C(C)(C)C2=O (centres undefined) in this test class 0

I'd appreciate the recorded outcome for "CC(=O)c1ccc2c(c1)N(CCCN1CCN(CCO)CC1)c1ccccc1S2" from this test. class 1

Which outcome was assigned to FC(F)OC(Cl)C(F)(F)F (centres undefined) in this test? class 0

Per the records of this test, what outcome belongs to CCCCC(CC)CCC(CC(C)C)OS(=O)(=O)O (centres undefined) ? class 0

Please share the test call associated with "CNC(=O)OCc1cccc(COC(=O)NC)n1" . class 0

Look up the recorded call for "CCOC(=O)c1c[nH]c2cc(OCC(C)C)c(OCC(C)C)cc2c1=O" in this test. class 1

Could you please tell me the result logged for "O=P(O)(O)CP(=O)(O)O" in this assay? class 0

What call does the record list for CCCC(CCC)C(=O)OC1C[C@H]2CC[C@@H](C1)[N+]2(C)C (some centres undefined) ? class 0

Test call, this molecule: "O=C(O)CCC/C=C\C[C@@H]1[C@@H](/C=C/[C@@H](O)COc2cccc(C(F)(F)F)c2)[C@H](O)C[C@@H]1O" class 0

Called result for "CC(=O)Oc1cccc2c1C(=O)c1c(OC(C)=O)cc(C(=O)O)cc1C2=O" class 0

How was "ClC(Cl)Cl" classified in this test? class 0

Lab log entry: "CN1CCC(OC(=O)C(Oc2ccc(Cl)cc2)Oc2ccc(Cl)cc2)CC1" — outcome as called in the assay? class 0

Lab log entry: "Cc1cccc(C)c1NC(=O)NC1=CCCN1C" — outcome as called in the assay? class 0

State the result this test recorded for "CN(C)C=Nc1c(I)cc(I)c(CCC(=O)O)c1I" . class 0

Could you kindly confirm the outcome this assay logged for "NCC[C@H](O)C(=O)N[C@@H]1C[C@H](N)[C@@H](O[C@H]2O[C@H](CN)[C@@H](O)[C@H](O)[C@H]2O)[C@H](O)[C@H]1O[C@H]1O[C@H](CO)[C@@H](O)[C@H](N)[C@H]1O" ? class 0

How did this test come out for "CN1C(=O)OC(C)(C)C1=O" ? class 0

Per the assay record, what outcome was assigned to "O=C1CCC(=O)N1CO" ? class 0

Test call for this molecule, please: "C[C@H](O)CN(C)C" class 0

I would be grateful if you could indicate the recorded call for "COc1cc(C)c(/C=C/C(C)=C/C=C/C(C)=C/C(=O)O)c(C)c1C" . class 0
